// reported inhibition for each item listed
Test: CRL1545 cell growth, single agent and combined, cisplatin and BGB IC20 combos (AID 1671464);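 also: cells exposed to compound for 96 hours before readout; 0% = vehicle DMSO and 100% = high DMSO killing control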
Conditions: CRL1545 osteosarcoma cells, single agent, at 0.05 µM, stronger effect = higher value
Dear colleague, please return just the value in %, with no unit written.

Would you please look over these solved cases?
[[record]]
compound = "CC(Oc1cc(-c2cnn(C3CCNCC3)c2)cnc1N)c1c(Cl)ccc(F)c1Cl (stereo not given)"
endpoint_result = 7.84

[[record]]
compound = "CCC1(O)C(=O)OCc2c1cc1n(c2=O)Cc2cc3cc(O)ccc3nc2-1 (stereo not given)"
endpoint_result = 14.1


Record N#Cc1ccc(OC2CCC(NC(=O)CCSc3nc4ccccc4c(=O)[nH]3)CC2)cc1 (stereo not given) , field inhibition: 34.4

Record Cn1cnc2[nH]c(=O)[nH]c(=O)c21 , field inhibition: -33.9

Record CC1CN(c2c(F)c(N)c3c(=O)c(C(=O)O)cn(C4CC4)c3c2F)CC(C)N1 (stereo not given) , field inhibition: 39.2

---

Test: viability loss with induced miR-34 in A549 – imaging, A549 dox-inducible miR-34, nuclei and caspase counts, primary screen (AID 1347080)
Conditions: A549 miR-34 inducible, Hoechst nuclei count, 48 h; measured here: total cells with miR-34 induction; stronger effect = lower value
// reported cell count for each item listed
Lab note: record just the number, no unit beside it.

Would you please look over these solved cases?
[[record]]
compound = "COc1ccc(C(=O)/C(Br)=C\\C(=O)O)cc1"
attribute_measured = "cell count"
endpoint_result = 9940

[[record]]
compound = "CCSc1ccc2c(c1)N(CCCN1CCN(C)CC1)c1ccccc1S2"
attribute_measured = "cell count"
endpoint_result = 7330

[[record]]
compound = "COc1ccc(CN(C)C(=O)Nc2nc(-c3ccccc3)ns2)cc1"
attribute_measured = "cell count"
endpoint_result = 6810

[[record]]
compound = "COc1ccc(CN2CCN(c3ncnc4sccc34)CC2=O)cc1"
attribute_measured = "cell count"
endpoint_result = 5020

[[record]]
compound = "CC(C)(F)CC(NC(c1ccc(-c2ccc(S(C)(=O)=O)cc2)cc1)C(F)(F)F)C(=O)NC1(C#N)CC1 (configuration not stated)"
attribute_measured = "cell count"
endpoint_result = 7020

[[record]]
compound = "C#CCNC1CCc2ccccc21 (configuration not stated)"
attribute_measured = "cell count"
endpoint_result = 8040


Record CCC(NC(C)C)C(O)c1ccc(O)c2[nH]c(=O)ccc12 (configuration not stated) , field cell count: 11700

Record COc1ccc(CN2CCN(c3nccc(-c4cn(C)nc4C)n3)CC2=O)cc1 , field cell count: 4640

---

Assay: viability loss with induced miR-34 in A549 – imaging, A549 dox-inducible miR-34, nuclei and caspase counts, primary screen (AID 1347080)
Settings: A549 miR-34 inducible, Hoechst nuclei count, 48 h; stronger effect = lower value; cell number ratio, induced over uninduced
The source made the active and inactive calls.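 Rule for the calls: active = compounds whose cell count with miR-34 switched on is under 0.7 times the count with it off; inactive = the rest.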
ATTRIBUTE MEASURED: fold change

Would you please look over these solved cases?
[[record]]
compound = "C=C[C@@]1(C)CC(OC(=O)CSC2C[C@H]3CC[C@@H](C2)N3C)[C@]2(C)C(C)CC[C@]3(CCC(=O)[C@H]32)C(C)C1O (stereo not given in full)"
attribute_measured = "fold change"
endpoint_result = "0.984 (inactive)"

[[record]]
compound = "CC(=O)C1CCC2C3CCC4=CC(=O)CC[C@]4(C)C3CC[C@]12C (stereo not given in full)"
attribute_measured = "fold change"
endpoint_result = "0.861 (inactive)"

[[record]]
compound = "CC1(C)OC2C[C@H]3[C@@H]4CCC5=CC(=O)CC[C@]5(C)[C@]4(F)C(O)C[C@]3(C)[C@@]2(C(=O)CCl)O1 (stereo not given in full)"
attribute_measured = "fold change"
endpoint_result = "0.851 (inactive)"

[[record]]
compound = "CC(N)(C(=O)O)c1ccc(C(=O)O)cc1 (stereo not given)"
attribute_measured = "fold change"
endpoint_result = "1.05 (inactive)"


--- query ---
Record CC1=C(CC(=O)O)c2cc(F)ccc2/C1=C/c1ccc(S(C)=O)cc1 (stereo not given) , field fold change: 0.93 (inactive)
